Values from ChEMBL document CHEMBL1132721

Species on record: Rattus norvegicus
Experiment: Inhibition of the sensitization of CA1 pyramidal neurons to depolarization by L-AP6 by the compound at a concentration of 200 uM after 20 minutes
Assay type: functional, organism-based
Settings: Pyramidal neuron
pIC50: −log10 of the molar value.

- givenSmiles: "N[C@]1(C(=O)O)C[C@H](n2oc(=O)[nH]c2=O)C1"
  pIC50: 2.15

* * *

Target: Metabotropic glutamate receptor 5 (Homo sapiens)
Sequence (P41594 whole entry): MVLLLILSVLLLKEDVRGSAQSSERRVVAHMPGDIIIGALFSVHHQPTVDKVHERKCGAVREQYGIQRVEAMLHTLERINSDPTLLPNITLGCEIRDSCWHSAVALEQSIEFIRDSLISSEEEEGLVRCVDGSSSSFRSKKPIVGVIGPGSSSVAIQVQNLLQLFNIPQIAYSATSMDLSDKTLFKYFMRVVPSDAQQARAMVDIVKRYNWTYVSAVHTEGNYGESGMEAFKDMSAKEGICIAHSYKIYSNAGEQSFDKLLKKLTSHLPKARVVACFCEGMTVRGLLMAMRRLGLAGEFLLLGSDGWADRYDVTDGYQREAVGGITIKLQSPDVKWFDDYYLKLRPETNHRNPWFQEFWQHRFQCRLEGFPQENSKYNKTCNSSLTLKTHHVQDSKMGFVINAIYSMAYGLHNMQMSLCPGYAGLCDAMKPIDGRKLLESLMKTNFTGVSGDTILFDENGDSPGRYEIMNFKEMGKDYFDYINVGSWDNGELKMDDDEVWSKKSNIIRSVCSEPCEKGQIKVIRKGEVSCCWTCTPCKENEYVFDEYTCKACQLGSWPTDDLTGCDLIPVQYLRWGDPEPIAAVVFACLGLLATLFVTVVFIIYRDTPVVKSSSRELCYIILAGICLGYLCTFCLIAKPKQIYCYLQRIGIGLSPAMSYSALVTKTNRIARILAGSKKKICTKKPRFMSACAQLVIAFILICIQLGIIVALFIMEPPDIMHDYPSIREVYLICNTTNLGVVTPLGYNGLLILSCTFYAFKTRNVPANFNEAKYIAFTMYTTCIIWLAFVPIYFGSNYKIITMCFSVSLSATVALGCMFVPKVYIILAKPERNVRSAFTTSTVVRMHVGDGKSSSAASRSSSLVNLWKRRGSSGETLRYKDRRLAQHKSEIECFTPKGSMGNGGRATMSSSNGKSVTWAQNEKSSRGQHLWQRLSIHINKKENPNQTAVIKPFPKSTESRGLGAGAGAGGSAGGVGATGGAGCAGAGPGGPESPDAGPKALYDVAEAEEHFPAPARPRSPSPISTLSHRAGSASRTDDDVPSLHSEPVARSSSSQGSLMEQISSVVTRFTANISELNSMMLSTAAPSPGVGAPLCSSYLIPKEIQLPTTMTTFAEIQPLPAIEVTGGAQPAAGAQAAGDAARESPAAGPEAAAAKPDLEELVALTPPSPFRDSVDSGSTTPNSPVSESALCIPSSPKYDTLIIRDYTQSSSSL
Assay: Compound was tested for the stimulation of Phosphoinositide (PI) hydrolysis in BHK cells expressing mGluR5a receptor
pEC50: −log10 of the molar value.
Listing of entries alongside the reported pEC50.
testReadout: pEC50

- givenSmiles: "N[C@]1(C(=O)O)C[C@H](n2oc(=O)[nH]c2=O)C1"
  testReadout: "pEC50"
  endpointValue: 4.96
- givenSmiles: "N[C@]1(C(=O)O)C[C@@H](n2oc(=O)[nH]c2=O)C1"
  testReadout: "pEC50"
  endpointValue: 4.31
